Listing of recorded dissociation percent by entry.
protocol description: In vitro dissociation of the water soluble taxane derivatives in blood plasma of rabbit
Assay type: in vitro ADME, New Zealand white rabbits
condition info: 37° C., 60 min
Form entry: value (%) — number only.

smiles data	dissociation percent, %
CC(=O)O[C@H]1C(=O)[C@@]2(C)[C@H]([C@H](OC(=O)c3ccccc3)[C@]3(O)C[C@H](OC(=O)[C@H](OC(=O)[C@H](F)CCN(C)C)[C@@H](NC(=O)c4ccccc4)c4ccccc4)C(C)=C1C3(C)C)[C@]1(OC(C)=O)CO[C@@H]1C[C@@H]2O.CS(=O)(=O)O	100

Item under review: CO[C@H]1C(=O)[C@]2(C)[C@@H](OC)C[C@H]3OC[C@@]3(OC(C)=O)[C@H]2[C@H](OC(=O)c2ccccc2)[C@]2(O)C[C@H](OC(=O)[C@H](OC(=O)[C@H](F)CCN(C)C)[C@@H](NC(=O)OC(C)(C)C)c3ccccc3)C(C)=C1C2(C)C.CS(=O)(=O)O . Reported dissociation percent?
100

---

Test system: New Zealand White rabbits
protocol description: ED50 and LD50 test concerning anesthesia (sequential method) in rabbits
Type: in vivo
condition info: injection via ear vein, death
reported metric: LD50

Sample answers from the record:
> print(dat)
                                   molecule  reported.metric    observed.measurement
1  CC(C)c1cccc(C(C)C)c1OC(=O)C(F)CCC(=O)[O-].[Na+] (racemic)             LD50  34.4 (32.1-36.5) mg/kg
2  CC(C)c1cccc(C(C)C)c1OC(=O)[C@@H](F)CCOP(=O)([O-])[O-].[Na+].[Na+]             LD50  38.7 (35.1-41.3) mg/kg
3  CC(C)c1cccc(C(C)C)c1OC(=O)C(F)CC(=O)[O-].[Na+] (stereo not shown)             LD50  36.7 (33.8-39.4) mg/kg

Now look at this one.
Returns the measured LD50 for the input molecule. Input: CC(C)c1cccc(C(C)C)c1OC(=O)[C@H](F)CCN(C)C.Cl [Compound E2]
28 (23.0-34.2) mg/kg

---

The reader will find reported dissociation percent values listed item by item below.
protocol description: In vitro dissociation of the water soluble taxane derivatives in blood plasma of rabbit
Format: in vitro ADME, New Zealand white rabbits
condition info: 37° C., 5 min
Report the figure in % without appending any unit label.

Could you share which dissociation percent value was measured for CC(=O)O[C@@]12CO[C@@H]1C[C@H](O)[C@@]1(C)C(=O)[C@H](O)C3=C(C)[C@@H](OC(=O)[C@H](OC(=O)C(F)CCN(C)C)[C@@H](NC(=O)OC(C)(C)C)c4ccccc4)C[C@@](O)([C@@H](OC(=O)c4ccccc4)[C@H]21)C3(C)C.CS(=O)(=O)O (stereo partly shown) ?
76.8

What do you get for CO[C@H]1C(=O)[C@]2(C)[C@@H](OC)C[C@H]3OC[C@@]3(OC(C)=O)[C@H]2[C@H](OC(=O)c2ccccc2)[C@]2(O)C[C@H](OC(=O)[C@H](OC(=O)[C@@H](F)CCN(C)C)[C@@H](NC(=O)OC(C)(C)C)c3ccccc3)C(C)=C1C2(C)C.CS(=O)(=O)O ?
85.6

// same read-out, input: CC(=O)O[C@@]12CO[C@@H]1C[C@H](O)[C@@]1(C)C(=O)[C@H](O)C3=C(C)[C@@H](OC(=O)[C@H](OC(=O)[C@@H](F)CCN(C)C)[C@@H](NC(=O)OC(C)(C)C)c4ccccc4)C[C@@](O)([C@@H](OC(=O)c4ccccc4)[C@H]21)C3(C)C.CS(=O)(=O)O
81.2

Same lookup for CC(=O)O[C@H]1C(=O)[C@@]2(C)[C@H]([C@H](OC(=O)c3ccccc3)[C@]3(O)C[C@H](OC(=O)[C@H](OC(=O)C(F)CCN(C)C)[C@@H](NC(=O)c4ccccc4)c4ccccc4)C(C)=C1C3(C)C)[C@]1(OC(C)=O)CO[C@@H]1C[C@@H]2O.Cl (stereo partly shown) , please.
75.7

Recorded values, source patent US10239851B2.
